assayed-target: human MRGPRD (Homo sapiens, UniProt Q8TDS7)
Sequence (Q8TDS7 whole entry): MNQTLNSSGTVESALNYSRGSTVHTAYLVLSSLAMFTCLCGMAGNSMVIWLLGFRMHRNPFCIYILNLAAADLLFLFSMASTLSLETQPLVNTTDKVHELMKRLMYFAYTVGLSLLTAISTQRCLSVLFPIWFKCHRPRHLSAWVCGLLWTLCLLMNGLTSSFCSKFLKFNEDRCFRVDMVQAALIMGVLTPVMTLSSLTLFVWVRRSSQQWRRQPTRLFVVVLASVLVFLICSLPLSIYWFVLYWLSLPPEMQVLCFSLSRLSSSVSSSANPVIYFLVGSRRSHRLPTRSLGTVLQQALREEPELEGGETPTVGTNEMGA
experiment: MRGPRD antagonist activity, IP-One HTRF assay in CHO cells stably expressing human MRGPRD (versus 100 μM β-Alanine agonist)
measured-parameter: IC50

Worked examples, 3 compounds total:
INSERT INTO assay_data (compound, value_measured) VALUES
  ('O=C(Nc1ccncc1)c1nnn(-c2ccc(-c3cc[nH]n3)cc2)c1C1CC1 [Compound 7-41]', '0.1 to 0.5 µM'),
  ('COc1ccc(-c2cccc(-n3nnc(C(=O)Nc4ccncc4)c3C3CC3)c2)cc1OC [Compound 7-313]', '1 to 3 µM'),
  ('O=C(Nc1ccncc1)c1nnn(-c2ccc(-c3cnn(Cc4cccs4)c3)cc2)c1C1CC1 [Compound 7-29]', '0.1 to 0.5 µM');

Now consider the entry below.
Prompt line: Param item = CC(NC(=O)c1nnn(-c2ccc(-c3ccccc3)cc2)c1C1CC1)c1nccs1 (stereo not shown) [Compound 14-3] ; retrieve measured IC50.
Response line: > 3 µM

* * *

Items are presented alongside their recorded pIC50.
assayed-target: human MRGPRD (Homo sapiens)
experiment: MRGPRD antagonist activity, IP-One HTRF assay in CHO cells stably expressing human MRGPRD (versus 100 μM β-Alanine agonist)
pIC50: −log10 of the molar value.

Solved entries:
INSERT INTO assay_data (molecule, measured_parameter, value_measured) VALUES
  ('O=C(Nc1ccncc1)c1nnn(-c2ccc(-c3cnn4c3CCC4)cc2)c1C1CC1 [Compound 7-25]', 'pIC50', '6.30 to 7.00'),
  ('COCc1ccc(-c2ccc(-n3nnc(C(=O)Nc4ccnc(C)c4)c3C3CC3)cc2)cn1 [Compound 15-21]', 'pIC50', '6.00 to 6.30'),
  ('CCc1ccc(-c2ccc(-n3nnc(C(=O)Nc4ccncc4)c3C3CC3)cc2)cc1 [Compound 7-199]', 'pIC50', '5.52 to 6.00'),
  ('O=C(Nc1ccncc1)c1nnn(-c2cccc(O)c2)c1C1CC1 [Compound 4-7]', 'pIC50', '5.52 to 6.00');

Prompt line: Return pIC50 measured with human MRGPRD (Homo sapiens) given this molecule: O=C(Nc1ccncc1)c1nnn(-c2ccc(-c3cccc(C(F)(F)F)c3)cc2)c1C1CC1 [Compound 7-155]
Response line: 6.00 to 6.30

Prompt line: Observed pIC50 on human MRGPRD (Homo sapiens) for C#Cc1cc(NC(=O)c2nnn(-c3ccc(-c4ccccc4)cc3)c2C2CC2)ccn1 [Compound 14-18] , please.
Response line: 6.30 to 7.00

Prompt line: Query pIC50 on human MRGPRD (Homo sapiens) for COc1ccccc1-c1ccc(-n2nnc(C(=O)Nc3ccncc3)c2C2CC2)cc1 [Compound 7-112]
Response line: 6.30 to 7.00

Prompt line: Param readout= pIC50; system= human MRGPRD (Homo sapiens); entry= CC(C)Oc1ccccc1-c1ccc(-n2nnc(C(=O)Nc3ccncc3)c2C2CC2)cc1 [Compound 7-160] ; returns value.
Response line: 6.00 to 6.30

Prompt line: Record O=C(Nc1ccncc1)c1nnn(-c2ccc(-c3ccnn3-c3ccccc3)cc2)c1C1CC1 [Compound 7-156] : what is its pIC50 with human MRGPRD (Homo sapiens)?
Response line: 6.00 to 6.30

Prompt line: Please tell me: pIC50 of Cn1ncc2c(NC(=O)c3nnn(-c4ccc(-c5ccccc5)cc4)c3C3CC3)cccc21 [Compound 14-63] , system human MRGPRD (Homo sapiens)?
Response line: 5.52 to 6.00
